pKi: −log10 of the molar value.
quantity.name: pKi

Inquiry: Write pKi of Cc1nc(N(C)c2ccc(OCCF)cc2)c2ccccc2n1 ; system used: MOR (Homo sapiens, UniProt P35372)
Sequence (P35372 whole entry): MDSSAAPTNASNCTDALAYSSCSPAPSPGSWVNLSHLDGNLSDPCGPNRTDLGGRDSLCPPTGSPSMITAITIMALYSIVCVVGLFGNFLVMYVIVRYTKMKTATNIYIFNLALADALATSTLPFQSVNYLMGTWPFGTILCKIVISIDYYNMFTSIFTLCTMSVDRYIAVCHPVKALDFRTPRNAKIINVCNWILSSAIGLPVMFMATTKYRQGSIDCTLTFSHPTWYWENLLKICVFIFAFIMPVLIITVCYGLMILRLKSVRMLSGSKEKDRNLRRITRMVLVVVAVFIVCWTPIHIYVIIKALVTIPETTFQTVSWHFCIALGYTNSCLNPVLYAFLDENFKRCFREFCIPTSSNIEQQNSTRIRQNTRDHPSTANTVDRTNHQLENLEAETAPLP
Reply text: < 5.00

Inquiry: Write pKi of COc1ccc(N(C)c2nc(C)nc3ccccc23)cc1 ; system used: MOR (Homo sapiens, UniProt P35372)
Reply text: 5.19

Inquiry: Write pKi of COc1ccc(N(C)c2ncnc3occ(C)c23)cc1 [HD-800, reference compound] ; system used: MOR (Homo sapiens, UniProt P35372)
Reply text: < 5.00

----------
quantity.name: Ki (nM)
Hi! Could you send only the number? It should be in nM, unit omitted.

Inquiry: Write Ki of Cc1nc(N(C)c2ccc(OCCF)cc2)c2ccccc2n1 ; system used: PBR (Homo sapiens, UniProt P30536)
Sequence (P30536 whole entry, species assumed): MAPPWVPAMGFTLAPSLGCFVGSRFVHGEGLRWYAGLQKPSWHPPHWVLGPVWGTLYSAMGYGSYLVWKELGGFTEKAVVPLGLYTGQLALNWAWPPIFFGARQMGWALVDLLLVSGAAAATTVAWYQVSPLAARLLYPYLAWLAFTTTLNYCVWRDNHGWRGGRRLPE
Reply text: 1590

Inquiry: Write Ki of COc1ccc(N(C)c2ncnc3occ(C)c23)cc1 [HD-800, reference compound] ; system used: PBR (Homo sapiens, UniProt P30536)
Reply text: 2360
